Target: IKZF2 (Homo sapiens (Human), UniProt Q96SW2+Q9UKS7)
Sequence (Q9UKS7 whole entry): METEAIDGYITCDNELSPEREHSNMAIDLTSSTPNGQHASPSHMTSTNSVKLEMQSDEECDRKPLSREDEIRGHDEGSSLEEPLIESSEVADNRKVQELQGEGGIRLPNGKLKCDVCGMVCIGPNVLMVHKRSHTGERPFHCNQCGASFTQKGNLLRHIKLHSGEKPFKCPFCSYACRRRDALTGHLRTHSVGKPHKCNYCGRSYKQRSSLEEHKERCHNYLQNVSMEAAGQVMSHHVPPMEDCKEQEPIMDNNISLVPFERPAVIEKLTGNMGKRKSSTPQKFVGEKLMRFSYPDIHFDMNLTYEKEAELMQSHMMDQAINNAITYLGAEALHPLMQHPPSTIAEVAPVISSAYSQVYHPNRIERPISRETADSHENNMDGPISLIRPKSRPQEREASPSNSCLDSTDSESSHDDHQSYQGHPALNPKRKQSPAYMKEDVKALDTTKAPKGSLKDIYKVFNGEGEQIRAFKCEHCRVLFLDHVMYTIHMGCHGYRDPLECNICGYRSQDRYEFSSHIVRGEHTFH
Sequence (Q96SW2 whole entry): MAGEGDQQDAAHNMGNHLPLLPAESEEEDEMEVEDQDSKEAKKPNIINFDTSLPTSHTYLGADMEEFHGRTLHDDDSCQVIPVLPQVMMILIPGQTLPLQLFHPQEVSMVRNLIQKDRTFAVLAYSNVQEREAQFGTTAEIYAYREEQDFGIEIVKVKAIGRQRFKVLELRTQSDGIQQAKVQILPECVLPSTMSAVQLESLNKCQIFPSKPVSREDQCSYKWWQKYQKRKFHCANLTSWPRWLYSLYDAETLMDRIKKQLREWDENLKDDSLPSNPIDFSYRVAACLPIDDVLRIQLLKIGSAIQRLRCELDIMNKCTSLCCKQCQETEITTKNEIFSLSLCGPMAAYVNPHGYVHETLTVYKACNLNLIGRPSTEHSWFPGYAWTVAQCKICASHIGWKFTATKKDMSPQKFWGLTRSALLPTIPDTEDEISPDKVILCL
Sequence (Q16531 whole entry partner): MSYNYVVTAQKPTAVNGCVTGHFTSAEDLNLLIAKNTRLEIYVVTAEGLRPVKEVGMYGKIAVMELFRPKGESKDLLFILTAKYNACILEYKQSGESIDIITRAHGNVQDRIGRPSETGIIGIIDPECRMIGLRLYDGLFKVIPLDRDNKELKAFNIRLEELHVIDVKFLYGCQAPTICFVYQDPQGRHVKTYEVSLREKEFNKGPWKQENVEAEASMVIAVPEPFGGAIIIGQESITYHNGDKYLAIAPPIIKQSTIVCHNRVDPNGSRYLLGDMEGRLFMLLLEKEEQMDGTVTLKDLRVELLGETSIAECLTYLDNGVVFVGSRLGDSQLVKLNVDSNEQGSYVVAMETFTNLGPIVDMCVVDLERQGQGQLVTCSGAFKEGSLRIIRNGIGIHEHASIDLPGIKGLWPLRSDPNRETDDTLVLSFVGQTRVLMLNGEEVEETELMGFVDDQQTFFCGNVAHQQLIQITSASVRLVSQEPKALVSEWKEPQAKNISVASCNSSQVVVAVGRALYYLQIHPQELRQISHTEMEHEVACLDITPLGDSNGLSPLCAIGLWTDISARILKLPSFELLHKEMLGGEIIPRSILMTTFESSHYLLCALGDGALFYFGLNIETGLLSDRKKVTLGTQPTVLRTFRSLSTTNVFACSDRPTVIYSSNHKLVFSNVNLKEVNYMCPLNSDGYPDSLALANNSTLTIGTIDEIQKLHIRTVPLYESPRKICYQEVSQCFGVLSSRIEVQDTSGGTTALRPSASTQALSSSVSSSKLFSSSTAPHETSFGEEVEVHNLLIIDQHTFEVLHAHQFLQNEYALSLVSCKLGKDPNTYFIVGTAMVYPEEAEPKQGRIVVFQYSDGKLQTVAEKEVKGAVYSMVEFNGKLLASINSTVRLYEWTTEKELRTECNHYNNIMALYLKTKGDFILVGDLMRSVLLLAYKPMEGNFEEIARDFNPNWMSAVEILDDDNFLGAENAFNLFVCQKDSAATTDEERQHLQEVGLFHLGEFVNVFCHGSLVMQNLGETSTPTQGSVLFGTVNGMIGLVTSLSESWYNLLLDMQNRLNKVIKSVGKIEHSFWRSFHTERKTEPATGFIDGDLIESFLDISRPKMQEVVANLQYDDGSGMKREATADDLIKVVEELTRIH
Assay: IKZF2 HiBit Assay (HEK293T Flp-in-HiBiT cells)
Type: cell-based
Conditions: HEK-293T; HEK293T Flp-in-HiBiT cells, 6 hrs; read-out: IKZF2 HiBit degradation Dmax
Would you mind telling me the reported Dmax of each entry?

Fill: Dmax (IKZF2 (Homo sapiens (Human), UniProt Q96SW2+Q9UKS7)) for this molecule Cn1ncc2cc(CN3CCC4(COc5c4ccc4c5CN([C@H]5CCC(=O)NC5=O)C4=O)C(F)(F)C3)ccc21 (stereo partly shown) [Compound B38]
60 to 80%

Fill: Dmax (IKZF2 (Homo sapiens (Human), UniProt Q96SW2+Q9UKS7)) for this molecule Cn1ncc2cccc(CN3CCC4(COc5c4ccc4c5CN([C@H]5CCC(=O)NC5=O)C4=O)C(F)(F)C3)c21 (stereo partly shown) [Compound B45]
> 80%

Fill: Dmax (IKZF2 (Homo sapiens (Human), UniProt Q96SW2+Q9UKS7)) for this molecule Cn1cc(-c2cccc(CN3CC[C@]4(COc5c4ccc4c5CN([C@H]5CCC(=O)NC5=O)C4=O)C(F)(F)C3)c2)cn1 [Compound B51]
60 to 80%

Fill: Dmax (IKZF2 (Homo sapiens (Human), UniProt Q96SW2+Q9UKS7)) for this molecule [2H]C1([2H])Oc2c(ccc3c2CN(C2CCC(=O)NC2=O)C3=O)C12CCN(Cc1cccc(-c3cnn(C)c3)c1)CC2 (stereo not shown) [Compound B13]
60 to 80%

Fill: Dmax (IKZF2 (Homo sapiens (Human), UniProt Q96SW2+Q9UKS7)) for this molecule O=C1CC[C@H](N2Cc3c(ccc4c3OC[C@]43CCN(Cc4cccc(-c5cnn(C6COC6)c5)c4)CC3(F)F)C2=O)C(=O)N1 [Compound B53]
> 80%

Fill: Dmax (IKZF2 (Homo sapiens (Human), UniProt Q96SW2+Q9UKS7)) for this molecule O=C1CC[C@H](N2Cc3c(ccc4c3OCC43CCN(Cc4cnn(CC5CCS(=O)(=O)CC5)c4)CC3(F)F)C2=O)C(=O)N1 (stereo partly shown) [Compound B47]
60 to 80%

Fill: Dmax (IKZF2 (Homo sapiens (Human), UniProt Q96SW2+Q9UKS7)) for this molecule Cc1cc2c(c3c1C(=O)N([C@H]1CCC(=O)NC1=O)C3)OCC21CCN(Cc2cccc(-c3cnn(C)c3)c2)CC1 [Compound B20]
20 to 40%

Fill: Dmax (IKZF2 (Homo sapiens (Human), UniProt Q96SW2+Q9UKS7)) for this molecule O=C1CC[C@H](N2Cc3c(ccc4c3OCC43CCN(Cc4cn(-c5ccc(Cl)cc5)nc4C(F)(F)F)CC3)C2=O)C(=O)N1 [Compound B5]
60 to 80%

Fill: Dmax (IKZF2 (Homo sapiens (Human), UniProt Q96SW2+Q9UKS7)) for this molecule O=C1CC[C@H](N2Cc3c(ccc4c3OCC43CCN(Cc4cn(-c5ccc(Cl)cc5)nc4Cl)CC3)C2=O)C(=O)N1 [Compound B4]
60 to 80%

Fill: Dmax (IKZF2 (Homo sapiens (Human), UniProt Q96SW2+Q9UKS7)) for this molecule O=C1CC[C@H](N2Cc3c(ccc4c3OCC43CCN(Cc4cc(-c5ccc(Cl)cc5)ns4)CC3)C2=O)C(=O)N1 [Compound B3]
60 to 80%

Fill: Dmax (IKZF2 (Homo sapiens (Human), UniProt Q96SW2+Q9UKS7)) for this molecule O=C1CCC(N2Cc3c(ccc4c3OCC43CCN(Cc4ccccc4)CC3F)C2=O)C(=O)N1 (stereo not shown) [Compound B23]
< 20%

Fill: Dmax (IKZF2 (Homo sapiens (Human), UniProt Q96SW2+Q9UKS7)) for this molecule O=C1CC[C@H](N2Cc3c(ccc4c3OCC43CCN(Cc4cnn(-c5ccc(Cl)cc5)c4C(F)(F)F)CC3)C2=O)C(=O)N1 [Compound B1]
40 to 60%

Fill: Dmax (IKZF2 (Homo sapiens (Human), UniProt Q96SW2+Q9UKS7)) for this molecule O=C1CC[C@H](N2Cc3c4c(cc(Cl)c3C2=O)C2(CCN(Cc3cccc5cn[nH]c35)CC2)CO4)C(=O)N1 [Compound B18]
< 20%
